Hi there, I'd appreciate the recorded pKd for every entry that follows.
# measured-target: WDR5 protein (Homo sapiens (Human), UniProt P61964)
# assay-info: Surface Plasmon Resonance (SPR) assay
# Assay type: binding
# experimental-parameters: SPR, Table 2; read-out: WDR5 binding affinity SPR (KD)
pKd: −log10 of the molar value.

Quickly give me recorded pKd for COc1cc(C(F)(F)F)c(C(=O)Nc2cc(-c3cc(CN4CCOC(C)(C)C4)ccc3F)ccc2N2CCN(C)CC2)cn1 < 6.70

Consider the molecule CCN1CCN(c2ccc(-c3cc(CN4CCOCC4)ccc3F)cc2NC(=O)c2c[nH]c(=O)cc2C(F)(F)F)CC1 and give its recorded pKd. < 6.70

Using known records, supply pKd for Cc1cc(C(=O)Nc2cc(-c3cc(CN4CCOCC4)ccc3F)ccc2N2CCN(CC(F)(F)F)CC2)cc(C)c1F < 6.70

Reference source: patent US11174250B2
